Would you mind telling me the reported interaction score of each entry?
# target_or_test_system: T1, 4H58-AA
# T1 chain: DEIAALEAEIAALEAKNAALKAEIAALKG
# run_description: two-hybrid library CCmax;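 further: natural log of median RNA to DNA barcode read ratio; higher means stronger binding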
# condition_description: mean of both orientations
Answers are plain numbers.

1. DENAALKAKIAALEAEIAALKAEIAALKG [4H1802-AA] : -1.15

Each of the following entries comes with a recorded value; kindly state interaction score for each.
1. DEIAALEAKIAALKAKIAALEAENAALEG [4H355-AA]
2. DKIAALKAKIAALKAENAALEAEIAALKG [4H2898-AA]

[out]
[1.08, 2.06]

[in] Indicate its recorded interaction score; the binder in question is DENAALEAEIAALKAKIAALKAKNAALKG [4H1136-AA]
[out] -0.193

Provenance of the data: paper PMC10397247
